Taken from ChEMBL document CHEMBL4184241.

TESTED ON: Peroxisome proliferator-activated receptor gamma (Homo sapiens, UniProt P37231)
Sequence (P37231 whole entry): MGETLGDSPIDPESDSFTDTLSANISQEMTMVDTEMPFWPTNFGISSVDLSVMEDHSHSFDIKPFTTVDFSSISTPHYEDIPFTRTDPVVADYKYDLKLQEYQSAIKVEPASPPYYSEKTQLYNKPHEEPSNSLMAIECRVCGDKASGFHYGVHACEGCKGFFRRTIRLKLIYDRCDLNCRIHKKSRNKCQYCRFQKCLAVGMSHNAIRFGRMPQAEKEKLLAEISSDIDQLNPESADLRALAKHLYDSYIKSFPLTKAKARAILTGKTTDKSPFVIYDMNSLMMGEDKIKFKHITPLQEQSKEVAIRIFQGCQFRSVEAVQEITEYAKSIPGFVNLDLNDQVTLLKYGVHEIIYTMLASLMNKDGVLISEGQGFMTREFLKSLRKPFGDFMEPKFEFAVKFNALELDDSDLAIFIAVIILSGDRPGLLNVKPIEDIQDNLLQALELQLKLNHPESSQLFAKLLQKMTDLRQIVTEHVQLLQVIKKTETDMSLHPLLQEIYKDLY
PROTOCOL TEXT: Displacement of fluormone Pan-PPAR Green from human GST-tagged PPARgamma-LBD by TR-FRET assay
OBSERVABLE: Ki (µM)

>>> df
                                   compound  result_units  observed_measurement
0  O=CN1CCc2c([nH]c3ccccc23)C1c1cccc2cccnc12 (stereo unspecified)            µM                   7.1
